Values were extracted from PubChem BioAssay (NCI).

Catalogue of growth readings, one per entry.
Tested on: HOP-92 NSCLC
Experiment: NCI-60 one-dose screen, 48 h (100 = growth as untreated, 0 = no growth, -100 = all killed)
Conditions: 10 µM unless noted
The panel holds about 83,000 compounds, 20% with a hit somewhere; the sample as a whole holds those more often. Activity calls are given as the source filed them. How the source made its calls: active means growth percent below 10; inactive means the rest.

{"Compound": "O=C(Nc1ccc(-c2nc(-c3cccc(O)c3)c(-c3ccnc(Br)c3)[nH]2)cc1)c1ccccc1", "Target or test system": "HOP-92 NSCLC", "growth": "6.58% (active)"}
{"Compound": "Oc1ccccc1-c1nnc(SCc2ccc(O)c3ncccc23)o1", "Target or test system": "HOP-92 NSCLC", "growth": "-8.17% (active)"}
{"Compound": "c1ccc(-c2n(Cc3ccc4ccccc4c3)c3c4ccccc4c4ccccc4c3[n+]2Cc2ccc3ccccc3c2)cc1", "Target or test system": "HOP-92 NSCLC", "growth": "-77% (active)"}
{"Compound": "NNC(=O)c1sc2nc(-c3cnccn3)cc(-c3cccs3)c2c1N", "Target or test system": "HOP-92 NSCLC", "growth": "101% (inactive)"}
{"Compound": "O=C(COc1ccc(/C=C2\\SC(=O)NC2=O)cc1)Nc1ccc(C(=O)/C=C/c2cc3ccccc3nc2Cl)cc1", "Target or test system": "HOP-92 NSCLC", "growth": "88.2% (inactive)"}
{"Compound": "CCOC(=O)/C(F)=C/C1CC1CCc1cccc(C(F)(F)F)c1 (stereo not drawn)", "Target or test system": "HOP-92 NSCLC", "growth": "116% (inactive)"}
{"Compound": "CCOC(=O)Nc1ccc(-c2nc(-c3cccc(O)c3)c(-c3ccnc(Br)c3)[nH]2)cc1", "Target or test system": "HOP-92 NSCLC", "growth": "38.3% (inactive)"}
{"Compound": "O=C(NCCCCCCNC(=O)c1c2c(nc3ccccc13)-c1cccnc1SC2)c1c2c(nc3ccccc13)-c1cccnc1SC2", "Target or test system": "HOP-92 NSCLC", "growth": "50.8% (inactive)"}
{"Compound": "COC[C@@]1(C)CC[C@]2(C)CC[C@]3(C)C(=CC[C@@H]4[C@@]5(C)CCCNC(C)(C)[C@@H]5CC[C@]43C)C2C1 (stereo partly drawn)", "Target or test system": "HOP-92 NSCLC", "growth": "73% (inactive)"}
{"Compound": "COc1ccc(-c2cc(-c3cccc4ccccc34)n3c(n2)nc2ccccc23)cc1OC", "Target or test system": "HOP-92 NSCLC", "growth": "11.5% (inactive)"}
{"Compound": "CS(=O)c1nccc(-c2c(-c3ccc(F)c(OCCc4ccccc4)c3)nc3sccn23)n1 (stereo not drawn)", "Target or test system": "HOP-92 NSCLC", "growth": "77% (inactive)"}
{"Compound": "O=C(/C=C/Nc1ccc(S(=O)(=O)O)cc1)c1ccc(F)cc1", "Target or test system": "HOP-92 NSCLC", "growth": "96.2% (inactive)"}
{"Compound": "Cc1ccc(-c2nnc3sc(C4=Cc5ccccc5OC=C4)nn23)cc1", "Target or test system": "HOP-92 NSCLC", "growth": "-34.7% (active)"}
{"Compound": "O=C(Cn1cc(CN2C(=O)c3ccc([N+](=O)[O-])cc3C2=O)nn1)Nc1ccccc1Br", "Target or test system": "HOP-92 NSCLC", "growth": "114% (inactive)"}
{"Compound": "COc1ccc(-c2no[n+]([O-])c2Nc2ccccc2Br)cc1", "Target or test system": "HOP-92 NSCLC", "growth": "73% (inactive)"}
{"Compound": "COc1cc(C(=O)c2cc(C(C)=O)c3c4ccccc4ccn23)cc(OC)c1OC", "Target or test system": "HOP-92 NSCLC", "growth": "26.8% (inactive)"}
{"Compound": "CCNC(=O)Oc1ccc(/C(=C(/C)c2ccc(Cl)cc2)c2ccc(OCCN3CCCC3)cc2)cc1", "Target or test system": "HOP-92 NSCLC", "growth": "83.2% (inactive)"}
{"Compound": "NS(=O)(=O)c1ccc(Nc2nc(N/N=C/c3ccc(F)cc3)nc(Nc3ccccc3)n2)cc1", "Target or test system": "HOP-92 NSCLC", "growth": "63.5% (inactive)"}
{"Compound": "Nc1nc(N)c2c(n1)NC(c1ccccc1)CC(c1ccc(Nc3nc(NCCO)nc(Nc4ccc(Cl)cc4)n3)cc1)=N2 (stereo not drawn)", "Target or test system": "HOP-92 NSCLC", "growth": "-79.1% (active)"}
{"Compound": "O=C1c2cc(Br)ccc2-n2c1nc1cc(Br)ccc1c2=O", "Target or test system": "HOP-92 NSCLC", "growth": "134% (inactive)"}
{"Compound": "COc1ccc2c(c1)c(-c1nnc(N)nc1-c1cn(C)c3ccccc13)cn2C", "Target or test system": "HOP-92 NSCLC", "growth": "97.9% (inactive)"}
{"Compound": "CS(=O)c1nccc(-c2c(-c3ccc(F)c(OCc4ccccc4)c3)nc3sccn23)n1 (stereo not drawn)", "Target or test system": "HOP-92 NSCLC", "growth": "51.8% (inactive)"}
{"Compound": "CC(C)=CCc1c(O)c(CC=C(C)C)c2c(c1O)C(=O)C1=C[C@@H]3C[C@H]4C(C)(C)O[C@@](C/C=C(\\C)C(=O)O)(C3=O)[C@@]14O2", "Target or test system": "HOP-92 NSCLC", "growth": "-21.8% (active)"}
{"Compound": "Cc1cn(-c2cc(NC(=O)c3cncc(C#Cc4cnc5ccc(OCCCS(C)(=O)=O)nn45)c3)cc(C(F)(F)F)c2)cn1", "Target or test system": "HOP-92 NSCLC", "growth": "-34.5% (active)"}
{"Compound": "COc1ccc(-c2nc3cc(Cl)c(Cl)cc3n2CC(=O)N=Nc2c(O)[nH]c3ccccc23)cc1", "Target or test system": "HOP-92 NSCLC", "growth": "24.1% (inactive)"}
{"Compound": "Cc1nn(-c2ccc(Cl)cc2)c(C)c1N=Nc1ccc2oc(=O)ccc2c1", "Target or test system": "HOP-92 NSCLC", "growth": "76.8% (inactive)"}
{"Compound": "Cn1ccnc1C(=O)/C=C/c1ccc(C(=O)Nc2ccc(NC(=O)CCNC(=O)c3csc(Br)n3)cc2)cc1", "Target or test system": "HOP-92 NSCLC", "growth": "103% (inactive)"}
{"Compound": "Cn1cc(-c2nn3cc(-c4cccnc4)nc3s2)c2ccccc21", "Target or test system": "HOP-92 NSCLC", "growth": "26.1% (inactive)"}
{"Compound": "CC(C)C[C@H]1C(=O)O[C@H](C(C)C)C(=O)N(C)[C@@H](C(C)C)C(=O)O[C@H](C(C)C)C(=O)N(C)[C@@H](C(C)C)C(=O)O[C@H](C(C)C)C(=O)N1C", "Target or test system": "HOP-92 NSCLC", "growth": "-23.2% (active)"}
{"Compound": "CC1OC(O[C@@H]2C(O)C(CO)OC(O[C@H]3COC(O[C@H]4CC[C@]5(C)[C@H]6CC[C@]78OC[C@@]9(CC[C@](C)(C=O)C[C@H]97)[C@H](O)C[C@@]8(C)[C@]6(C)CC[C@H]5C4(C)C)[C@@H](OC4OC(CO)[C@@H](O)[C@@H](O)[C@@H]4O)[C@@H]3O)[C@H]2OC2OC[C@@H](O)[C@@H](O)[C@@H]2O)[C@@H](O)[C@@H](O)[C@H]1O (stereo partly drawn)", "Target or test system": "HOP-92 NSCLC", "growth": "15.5% (inactive)"}
{"Compound": "Cc1cc(O)c(=O)cc2c1C[C@H]1CC(C)(C)/C=C/C[C@]3(C)Oc4cc(=O)c(O)cc(C)c4C[C@H]3C[C@H](O)[C@@]1(C)O2", "Target or test system": "HOP-92 NSCLC", "growth": "-16.1% (active)"}
{"Compound": "CN1CCN(c2ccc(C(=O)/C=C/c3ccc(Cl)c(C(F)(F)F)c3)cc2)CC1", "Target or test system": "HOP-92 NSCLC", "growth": "41.8% (inactive)"}
{"Compound": "Oc1ccc(CSc2nnc(-c3ccc(Oc4ccccc4)cc3)n2-c2ccccc2)c2cccnc12", "Target or test system": "HOP-92 NSCLC", "growth": "10.5% (inactive)"}
